The following molecules are shown together with reported EC50 values.
Target: SST2 (Homo sapiens)
Construct: host or cells: PathHunter CHO-K1 SST2 cells
Sequence (P30874 whole entry): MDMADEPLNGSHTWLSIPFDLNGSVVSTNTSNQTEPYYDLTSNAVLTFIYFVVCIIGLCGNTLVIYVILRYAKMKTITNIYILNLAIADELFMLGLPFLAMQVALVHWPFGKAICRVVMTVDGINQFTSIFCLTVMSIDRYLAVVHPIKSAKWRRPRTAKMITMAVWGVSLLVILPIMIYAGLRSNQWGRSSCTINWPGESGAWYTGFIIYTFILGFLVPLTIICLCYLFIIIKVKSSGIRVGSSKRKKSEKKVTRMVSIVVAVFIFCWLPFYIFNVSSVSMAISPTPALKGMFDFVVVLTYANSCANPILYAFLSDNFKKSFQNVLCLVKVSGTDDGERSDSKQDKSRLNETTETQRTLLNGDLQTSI
Assay: PathHunter CHO-K1 SST2 internalization assay
Type: cell-based
Settings: PathHunter CHO-K1 SST2, 90 min; read-out: Internalization EC50
Numbers only here, please. The scale is nM.

Cc1cc(F)cc(-c2cnc(NCCNC(=O)CCOCCOCCOCCOCCNC(=O)CCCCC[N+]3=C(/C=C/C=C/C=C4/N(C)c5ccccc5C4(C)C)C(C)(C)c4ccccc43)c(-c3nc4ccc(Cl)cc4[nH]3)c2N2CCC(N)CC2)c1    2.9
CC[C@H](C)[C@@H]([C@@H](CC(=O)N1CCC[C@H]1[C@H](OC)[C@@H](C)C(=O)N[C@H](C)[C@@H](O)c1ccccc1)OC)N(C)C(=O)[C@@H](NC(=O)[C@H](C(C)C)N(C)C(=O)OCc1ccc(NC(=O)[C@H](CCCNC(N)=O)NC(=O)[C@@H](NC(=O)[C@H](CCC(=O)O)NC(=O)CCOCCOCCOCCOCCC(=O)NCCNc2ncc(-c3cc(C)cc(F)c3)c(N3CCC(N)CC3)c2-c2nc3ccc(Cl)cc3[nH]2)C(C)C)cc1C(=O)NC)C(C)C    13
CC[C@H](C)[C@@H]([C@@H](CC(=O)N1CCC[C@H]1[C@H](OC)[C@@H](C)C(=O)N[C@@H](Cc1ccccc1)C(=O)O)OC)N(C)C(=O)[C@@H](NC(=O)[C@H](C(C)C)N(C)C(=O)CCOCCOCCOCCOCCC(=O)NCCNc1ncc(-c2cc(C)cc(F)c2)c(N2CCC(N)CC2)c1-c1nc2ccc(Cl)cc2[nH]1)C(C)C    13.4
CC[C@H](C)[C@@H]([C@@H](CC(=O)N1CCC[C@H]1[C@H](OC)[C@@H](C)C(=O)N[C@H](C)[C@@H](O)c1ccccc1)OC)N(C)C(=O)[C@@H](NC(=O)[C@H](C(C)C)N(C)C(=O)OCc1ccc(NC(=O)[C@H](CCCNC(N)=O)NC(=O)[C@@H](NC(=O)CCOCCC(=O)NCCNc2ncc(-c3cc(C)cc(F)c3)c(N3CCC(N)CC3)c2-c2nc3ccc(Cl)cc3[nH]2)C(C)C)c(O[C@@H]2O[C@H](CO)[C@@H](O)[C@H](O)[C@H]2O)c1)C(C)C    4.6
CC[C@H](C)[C@@H]([C@@H](CC(=O)N1CCC[C@H]1[C@H](OC)[C@@H](C)C(=O)N[C@H](C)[C@@H](O)c1ccccc1)OC)N(C)C(=O)[C@@H](NC(=O)[C@H](C(C)C)N(C)C(=O)OCc1ccc(NC(=O)[C@H](CCCNC(N)=O)NC(=O)[C@@H](NC(=O)[C@@H](CCC(=O)O)NC(=O)CCOCCC(=O)NCCNc2ncc(-c3cc(C)cc(F)c3)c(N3CCC(N)CC3)c2-c2nc3ccc(Cl)cc3[nH]2)C(C)C)cc1C(=O)NCCN)C(C)C    6.7

# lookup: CC[C@H](C)[C@@H]([C@@H](CC(=O)N1CCC[C@H]1[C@H](OC)[C@@H](C)C(=O)N[C@H](C)[C@@H](O)c1ccccc1)OC)N(C)C(=O)[C@@H](NC(=O)[C@H](C(C)C)N(C)C(=O)OCc1ccc(NC(=O)[C@H](C)NC(=O)[C@@H](NC(=O)[C@H](CCC(N)=O)NC(=O)CCOCCC(=O)NCCNc2ncc(-c3cc(C)cc(F)c3)c(N3CCC(N)CC3)c2-c2nc3ccc(Cl)cc3[nH]2)C(C)C)c(O[C@@H]2O[C@H](C(=O)O)[C@@H](O)[C@H](O)[C@H]2O)c1)C(C)C on SST2 (Homo sapiens), EC50 = 2.1

# value of EC50, SST2 (Homo sapiens), item CC[C@H](C)[C@@H]([C@@H](CC(=O)N1CCC[C@H]1[C@H](OC)[C@@H](C)C(=O)N[C@H](C)[C@@H](O)c1ccccc1)OC)N(C)C(=O)[C@@H](NC(=O)[C@H](C(C)C)N(C)C(=O)OCc1ccc(NC(=O)[C@H](CCCNC(N)=O)NC(=O)[C@@H](NC(=O)CCOCCC(=O)NCCNc2ncc(-c3cc(C)cc(F)c3)c(N3CCC(N)CC3)c2-c2nc3ccc(Cl)cc3[nH]2)C(C)C)cc1C(=O)NCCN)C(C)C = 6

Form field, EC50 with SST2 (Homo sapiens), item CC[C@H](C)[C@@H]([C@@H](CC(=O)N1CCC[C@H]1[C@H](OC)[C@@H](C)C(=O)N[C@H](C)[C@@H](O)c1ccccc1)OC)N(C)C(=O)[C@@H](NC(=O)[C@H](C(C)C)N(C)C(=O)OCc1ccc(NC(=O)[C@H](CCCNC(N)=O)NC(=O)[C@@H](NC(=O)[C@H](CS(=O)(=O)O)NC(=O)CCOCCOCCOCCOCCC(=O)NCCNc2ncc(-c3cc(C)cc(F)c3)c(N3CCC(N)CC3)c2-c2nc3ccc(Cl)cc3[nH]2)C(C)C)cc1C(=O)NCCN)C(C)C [Compound 157] : 12

Here CC[C@H](C)[C@@H]([C@@H](CC(=O)N1CCC[C@H]1[C@H](OC)[C@@H](C)C(=O)N[C@H](C)[C@@H](O)c1ccccc1)OC)N(C)C(=O)[C@@H](NC(=O)[C@H](C(C)C)N(C)C(=O)OCc1ccc(NC(=O)[C@H](CCCNC(N)=O)NC(=O)[C@@H](NC(=O)CCOCCOCCOCCOCCNCCNc2ncc(-c3cc(C)cc(F)c3)c(N3CCC(N)CC3)c2-c2nc3ccc(Cl)cc3[nH]2)C(C)C)c(O[C@@H]2O[C@H](C(=O)O)[C@@H](O)[C@H](O)[C@H]2O)c1)C(C)C was tested on SST2 (Homo sapiens), and its EC50 came to 21

Lab entry: SST2 (Homo sapiens) assay, molecule CCC(C)C(C(CC(=O)N1CCCC1C(OC)C(C)C(=O)NC(C)C(O)c1ccccc1)OC)N(C)C(=O)C(NC(=O)C(C(C)C)N(C)C(=O)OCc1ccc(NC(=O)[C@H](CCCNC(N)=O)NC(=O)[C@@H](NC(=O)CCOCCC(=O)NCCNc2ncc(-c3cc(C)cc(F)c3)c(N3CCC(N)CC3)c2-c2nc3ccc(C(N)=O)cc3[nH]2)C(C)C)cc1)C(C)C (stereo in doubt) , EC50 = 704

----------
Target: SST2 (Homo sapiens)
Construct: host or cells: PathHunter CHO-K1 SST2 cells
Test: PathHunter CHO-K1 SST2 internalization assay
Assay type: cell-based
Details: PathHunter CHO-K1 SST2, 90 min; read-out: Internalization EC50
Starred links: 1 amine or outer side, 2 acyl side, 3 side chain; linkers in the order of their positions; H or OH if unused. Non-standard residues stand in square brackets, D forms with d. Residues, ends and D or L forms follow the SMILES beside them. *: point of attachment. PABC(3-O-βDGlc) = O=C(OCc1ccc(N[*:1])c(O[C@@H]2O[C@H](CO)[C@@H](O)[C@H](O)[C@H]2O)c1)[*:2]; X1 = Cc1cc(F)cc(-c2cnc(NCCNC(=O)CCOCCC(=O)*)c(-c3nc4ccc(Cl)cc4[nH]3)c2N2CCC(N)CC2)c1; Dolaproine = CO[C@@H]([C@@H]1CCCN1)[C@@H](C)C(=O)O; Dil = CC[C@H](C)[C@H](NC)[C@@H](CC(=O)O)OC; X2 = C[C@@H](N*)[C@@H](O)c1ccccc1; NMeV = CN[C@H](C(=O)O)C(C)C
endpoint: EC50 (nM)
Give the value, in units of nM, as a plain number.

Some solved entries appear below for comparison.
CC[C@H](C)[C@@H]([C@@H](CC(=O)N1CCC[C@H]1[C@H](OC)[C@@H](C)C(=O)N[C@H](C)[C@@H](O)c1ccccc1)OC)N(C)C(=O)[C@@H](NC(=O)[C@H](C(C)C)N(C)C(=O)OCc1ccc(NC(=O)[C@H](C)NC(=O)[C@@H](NC(=O)[C@H](CCC(=O)O)NC(=O)CCOCCC(=O)NCCNc2ncc(-c3cc(C)cc(F)c3)c(N3CCC(N)CC3)c2-c2nc3ccc(Cl)cc3[nH]2)C(C)C)c(O[C@@H]2O[C@H](CO)[C@@H](O)[C@H](O)[C@H]2O)c1)C(C)C [Compound 67] (X1-EVA[PABC(3-O-βDGlc)][NMeV]V[Dil][Dolaproine]-X2)    6.7
CC[C@H](C)[C@@H]([C@@H](CC(=O)N1CCC[C@H]1[C@H](OC)[C@@H](C)C(=O)N[C@H](C)[C@@H](O)c1ccccc1)OC)N(C)C(=O)[C@@H](NC(=O)[C@H](C(C)C)N(C)C(=O)OCc1ccc(NC(=O)[C@H](CCCNC(N)=O)NC(=O)[C@@H](NC(=O)CN2CCN(CC(=O)O)CCN(CC(=O)NCCOCCOCCOCCOCCC(=O)NCCNc3ncc(-c4cc(C)cc(F)c4)c(N4CCC(N)CC4)c3-c3nc4ccc(Cl)cc4[nH]3)CC2)C(C)C)cc1)C(C)C [Compound 39]    18.7
CC[C@H](C)[C@@H]([C@@H](CC(=O)N1CCC[C@H]1[C@H](OC)[C@@H](C)C(=O)N[C@H](C)[C@@H](O)c1ccccc1)OC)N(C)C(=O)[C@@H](NC(=O)[C@H](C(C)C)N(C)C(=O)OCc1ccc(NC(=O)[C@H](C)NC(=O)[C@@H](NC(=O)CCOCCNCCNc2ncc(-c3cc(C)cc(F)c3)c(N3CCC(N)CC3)c2-c2nc3ccc(Cl)cc3[nH]2)C(C)C)c(O[C@@H]2O[C@H](C(=O)O)[C@@H](O)[C@H](O)[C@H]2O)c1)C(C)C [Compound 130]    25
COc1cc2cc(c1Cl)N(C)C(=O)CC(OC(=O)[C@@H](C)N(C)C(=O)CCSC1CC(=O)N(CC3CCC(C(=O)NCCNc4ncc(-c5cc(C)cc(F)c5)c(N5CCC(N)CC5)c4-c4nc5ccc(Cl)cc5[nH]4)CC3)C1=O)[C@]1(C)OC1[C@@H](C)C1C[C@@](O)(NC(=O)O1)[C@H](OC)/C=C/C=C(\C)C2 (some centres unmarked) [Compound 6]    5.3

Next, consider the following compound.
SST2 (Homo sapiens) EC50 of CC[C@H](C)[C@@H]([C@@H](CC(=O)N1CCC[C@H]1[C@H](OC)[C@@H](C)C(=O)N[C@H](C)[C@@H](O)c1ccccc1)OC)N(C)C(=O)[C@@H](NC(=O)[C@H](C(C)C)N(C)C(=O)OCc1ccc(NC(=O)[C@H](CCCNC(N)=O)NC(=O)[C@@H](NC(=O)[C@H](CCC(N)=O)NC(=O)CCOCCC(=O)NCCNc2ncc(-c3cc(C)cc(F)c3)c(N3CCC(N)CC3)c2-c2nc3ccc(Cl)cc3[nH]2)C(C)C)cc1C(=O)NC)C(C)C [Compound 54] is 10

// provenance: patent US12134610B2
